Let's look at some compounds and their measured remaining at 2 h.
Assay: Stability and biodistribution of prodrugs in vivo (HPLC of plasma and tissues)
Set-up: species or system mice (CD-1 nude; BALB/C where indicated)
Details: mouse, kidney, 50 mg/kg, KIDNEY, 120 min, 50 mg/kg i.p. or i.v., CD-1 nude mice; read-out: stability: percentage of material observed as intact prodrug, kidney
Give the number; % is assumed, so skip it.

Here are 2 compounds together with their reported answers.
CN(Cc1cnc2nc(N)nc(N)c2n1)c1ccc(C(=O)N[C@@H](CCC(=O)O)C(=O)N[C@@H](Cc2ccccc2C2CCCC2)C(=O)O)cc1 [Prodrug 8] : 81
CN(Cc1cnc2nc(N)nc(N)c2n1)c1ccc(C(=O)N[C@@H](CCC(=O)O)C(=O)N[C@@H](Cc2cccc(C3CCC3)c2)C(=O)O)cc1 [Prodrug 11] : 82.3

Which remaining at 2 h value is on record for Cc1nc2ccc3ccc(CNc4ccc(C(=O)N[C@@H](CCC(=O)O)C(=O)N[C@@H](Cc5cccc6ccccc56)C(=O)O)c(F)c4)cc3c2c(=O)[nH]1 [Prodrug 3] ?
74

---

Catalogue of remaining at 2 h values
Assay: Stability and biodistribution of prodrugs in vivo (HPLC of plasma and tissues)
Set-up: species or system mice (CD-1 nude; BALB/C where indicated)
Settings: mouse, plasma, 50 mg/kg, PLASMA, 120 min, 50 mg/kg i.p. or i.v., CD-1 nude mice; read-out: stability: percentage of material observed as intact prodrug, plasma
Reply numerically in %, unit not repeated.

Below: 5 molecules and their reported remaining at 2 h.
Cc1nc2ccc3ccc(CNc4ccc(C(=O)N[C@@H](CCC(=O)O)C(=O)N[C@@H](Cc5ccccc5I)C(=O)O)c(F)c4)cc3c2c(=O)[nH]1 [Prodrug 5] : 95
CN(Cc1cnc2nc(N)nc(N)c2n1)c1ccc(C(=O)N[C@@H](CCC(=O)O)C(=O)N[C@@H](Cc2ccccc2C(=O)O)C(=O)O)cc1 [Prodrug 7] : 100
CN(Cc1cnc2nc(N)nc(N)c2n1)c1ccc(C(=O)N[C@@H](CCC(=O)O)C(=O)N[C@@H](Cc2ccccc2)C(=O)O)cc1 [Prodrug 10, reference compound] : 2.1
Cc1nc2ccc3ccc(CNc4ccc(C(=O)N[C@@H](CCC(=O)O)C(=O)N[C@@H](Cc5ccccc5C(=O)O)C(=O)O)c(F)c4)cc3c2c(=O)[nH]1 [Prodrug 4] : 99
CN(Cc1cnc2nc(N)nc(N)c2n1)c1ccc(C(=O)N[C@@H](CCC(=O)O)C(=O)N[C@@H](Cc2ccc(O)c(C3CCCC3)c2)C(=O)O)cc1 [Prodrug 13] : 100

// lookup remaining at 2 h for CN(Cc1cnc2nc(N)nc(N)c2n1)c1ccc(C(=O)N[C@@H](CCC(=O)O)C(=O)N[C@@H](Cc2cccc(C(C)(C)C)c2)C(=O)O)cc1 [Prodrug 12]
100

---

Tested on: 268gly
Assay: Enzyme kinetics of prodrugs with 268gly mutant of human CPA1 (coupled assay)
Assay type: biochemical
Conditions: 268Gly
kcat/Km overview
Respond with the bare value in µM⁻¹ s⁻¹.

CN(Cc1cnc2nc(N)nc(N)c2n1)c1ccc(C(=O)N[C@@H](CCC(=O)O)C(=O)N[C@@H](Cc2ccc(O)c(C3CCCC3)c2)C(=O)O)cc1 [Prodrug 13] : 0.18

Next, consider the following compound.
State the recorded kcat/Km for this entry: CN(Cc1cnc2nc(N)nc(N)c2n1)c1ccc(C(=O)N[C@@H](CCC(=O)O)C(=O)N[C@@H](Cc2ccccc2C2CCCC2)C(=O)O)cc1 [Prodrug 8]
0.157

---

Experiment: Stability and biodistribution of prodrugs in vivo (HPLC of plasma and tissues)
Design: species or system mice (CD-1 nude; BALB/C where indicated)
Conditions: FECES, 120 min, 50 mg/kg i.p. or i.v., CD-1 nude mice
Examples of compounds with documented concentration of prodrug in feces follow.
Kindly format the answer as number then unit.

Entry CN(Cc1cnc2nc(N)nc(N)c2n1)c1ccc(C(=O)N[C@@H](CCC(=O)O)C(=O)N[C@@H](Cc2cccc(C(C)(C)C)c2)C(=O)O)cc1 [Prodrug 12] has what concentration of prodrug in feces?
1941 nmol/g

Now this one: CN(Cc1cnc2nc(N)nc(N)c2n1)c1ccc(C(=O)N[C@@H](CCC(=O)O)C(=O)N[C@@H](Cc2ccc(O)c(C3CCCC3)c2)C(=O)O)cc1 [Prodrug 13]
738.4 nmol/g

Query CN(Cc1cnc2nc(N)nc(N)c2n1)c1ccc(C(=O)N[C@@H](CCC(=O)O)C(=O)N[C@@H](Cc2ccccc2C2CCCC2)C(=O)O)cc1 [Prodrug 8] next
646.2 nmol/g

And what about the compound CN(Cc1cnc2nc(N)nc(N)c2n1)c1ccc(C(=O)N[C@@H](CCC(=O)O)C(=O)N[C@@H](Cc2cccc(C3CCCC3)c2)C(=O)O)cc1 [Prodrug 9] ?
1505.7 nmol/g

Now the same for CN(Cc1cnc2nc(N)nc(N)c2n1)c1ccc(C(=O)N[C@@H](CCC(=O)O)C(=O)N[C@@H](Cc2cccc(C3CCC3)c2)C(=O)O)cc1 [Prodrug 11]
389.8 nmol/g

Can you handle CN(Cc1cnc2nc(N)nc(N)c2n1)c1ccc(C(=O)N[C@@H](CCC(=O)O)C(=O)N[C@@H](CC(=O)O)C(=O)O)cc1 [Prodrug 6] next?
207 nmol/g

Would you mind doing Nc1nc(N)c(CCCNc2ccc(C(=O)N[C@@H](CCC(=O)O)C(=O)N[C@@H](Cc3cccc(C4CCCC4)c3)C(=O)O)cc2)c(=O)[nH]1 [Prodrug 14] as well?
932.8 nmol/g

---

Experiment: Stability and biodistribution of prodrugs in vivo (HPLC of plasma and tissues)
Design: species or system mice (CD-1 nude; BALB/C where indicated)
Conditions: mouse, liver, 50 mg/kg, LIVER, 90 min, 50 mg/kg i.p. or i.v., CD-1 nude mice; read-out: stability: percentage of material observed as intact prodrug, liver
measurement.type: remaining at 1.5 h (%)
A number alone suffices; assume %.

// returns reported remaining at 1.5 h for input Cc1nc2ccc3ccc(CNc4ccc5c(c4)CN([C@@H](CCC(=O)O)C(=O)N[C@@H](Cc4ccccc4)C(=O)O)C5=O)cc3c2c(=O)[nH]1 [Prodrug 2]
100

---

Assay: Stability and biodistribution of prodrugs in vivo (HPLC of plasma and tissues)
Design: species or system mice (CD-1 nude; BALB/C where indicated)
Conditions: mouse, feces, 50 mg/kg, FECES, 30 min, 50 mg/kg i.p. or i.v., BALB/C mice; read-out: stability: percentage of material observed as intact prodrug, feces (converted)
measurement.type: remaining at 0.5 h (%)
Report the figure in % without appending any unit label.

Form field: reported remaining at 0.5 h of CN(Cc1cnc2nc(N)nc(N)c2n1)c1ccc(C(=O)N[C@@H](CCC(=O)O)C(=O)N[C@@H](Cc2cccc(C3CCCC3)c2)C(=O)O)cc1 [Prodrug 9]
98

---

Test: in vivo
Conditions: mouse, iv
This section presents compounds with their documented MTD values.

CN(Cc1cnc2nc(N)nc(N)c2n1)c1ccc(C(=O)N[C@@H](CCC(=O)O)C(=O)N[C@@H](Cc2cccc(C3CCC3)c2)C(=O)O)cc1 : < 30 mg/kg
CN(Cc1cnc2nc(N)nc(N)c2n1)c1ccc(C(=O)N[C@@H](CCC(=O)O)C(=O)N[C@@H](Cc2ccccc2C2CCCC2)C(=O)O)cc1 [Prodrug 8] : ≥ 20 mg/kg

Entry under review: CN(Cc1cnc2nc(N)nc(N)c2n1)c1ccc(C(=O)N[C@@H](CCC(=O)O)C(=O)O)cc1 [methotrexate, reference compound] . Reported MTD?
4 mg/kg

---

// remaining at 2 h lookup, one value per entry
Test: Stability and biodistribution of prodrugs in vivo (HPLC of plasma and tissues)
Parameters: species or system mice (CD-1 nude; BALB/C where indicated)
Details: mouse, cecum, 50 mg/kg, CECUM, 120 min, 50 mg/kg i.p. or i.v., CD-1 nude mice; read-out: stability: percentage of material observed as intact prodrug, cecum
Give the value in % but do not write % after it.

For the molecule Nc1nc(N)c(CCCNc2ccc(C(=O)N[C@@H](CCC(=O)O)C(=O)N[C@@H](Cc3cccc(C4CCCC4)c3)C(=O)O)cc2)c(=O)[nH]1 [Prodrug 14] , what remaining at 2 h is on record?
48.8

Then what about the molecule CN(Cc1cnc2nc(N)nc(N)c2n1)c1ccc(C(=O)N[C@@H](CCC(=O)O)C(=O)N[C@@H](Cc2cccc(C3CCCC3)c2)C(=O)O)cc1 [Prodrug 9] ?
99

Consider next the molecule CN(Cc1cnc2nc(N)nc(N)c2n1)c1ccc(C(=O)N[C@@H](CCC(=O)O)C(=O)N[C@@H](Cc2ccccc2C(=O)O)C(=O)O)cc1 [Prodrug 7] in the same way.
100

---

Experiment: Stability and biodistribution of prodrugs in vivo (HPLC of plasma and tissues)
Set-up: species or system mice (CD-1 nude; BALB/C where indicated)
Conditions: mouse, small intestine, 50 mg/kg, SMALL INTESTINE, 30 min, 50 mg/kg i.p. or i.v., CD-1 nude mice; read-out: stability: percentage of material observed as intact prodrug, small intestine
measurement.type: remaining at 0.5 h (%)
Numeric only. Scale: %

Nc1nc(N)c(CCCNc2ccc(C(=O)N[C@@H](CCC(=O)O)C(=O)N[C@@H](Cc3cccc(C4CCCC4)c3)C(=O)O)cc2)c(=O)[nH]1 [Prodrug 14] : 100
CN(Cc1cnc2nc(N)nc(N)c2n1)c1ccc(C(=O)N[C@@H](CCC(=O)O)C(=O)N[C@@H](Cc2cccc(C(C)(C)C)c2)C(=O)O)cc1 [Prodrug 12] : 91
CN(Cc1cnc2nc(N)nc(N)c2n1)c1ccc(C(=O)N[C@@H](CCC(=O)O)C(=O)N[C@@H](Cc2cccc(C3CCC3)c2)C(=O)O)cc1 [Prodrug 11] : 86.7

Could you tell me which remaining at 0.5 h is on file for Cc1nc2ccc3ccc(CNc4ccc5c(c4)CN([C@@H](CCC(=O)O)C(=O)N[C@@H](Cc4ccccc4)C(=O)O)C5=O)cc3c2c(=O)[nH]1 [Prodrug 2] ?
91

Okay, and Cc1nc2ccc3ccc(CNc4ccc(C(=O)N[C@@H](CCC(=O)O)C(=O)N[C@@H](Cc5ccccc5C(=O)O)C(=O)O)c(F)c4)cc3c2c(=O)[nH]1 [Prodrug 4] ?
99

Entry CN(Cc1cnc2nc(N)nc(N)c2n1)c1ccc(C(=O)N[C@@H](CCC(=O)O)C(=O)N[C@@H](Cc2ccccc2C(=O)O)C(=O)O)cc1 [Prodrug 7] please
100

Cited source: patent US6319702A
